# system: SARS-CoV-2 NSP3 Mac1 (Severe acute respiratory syndrome coronavirus 2, UniProt P0DTD1)
# Type: binding
# Design: contains a conserved macrodomain enzyme (Mac1)
# measurement-parameters: maximal thermal upshift vs DMSO control
assay-readout: DSF max dTma (°C)

INSERT INTO assay_data (compound, numeric_readout) VALUES
  ('Cc1ccc(CC(=O)OCc2noc(C3CC3)n2)cc1O [Z2995]', 0.32),
  ('OCc1cn(C2CCCN(c3ncnc4[nH]ccc34)C2)nn1 (stereo not drawn) [Z7864]', 0.32),
  ('Cc1cc(CSc2nnc3c(=O)[nH]c4ccccc4n23)no1 [Z1628]', 0.68),
  ('N#Cc1ccc(OCCn2cnc3c(N)ncnc32)cc1 [ZINC000043461211]', 0.45),
  ('NC(=O)c1ccc(CCSc2cccc(F)c2)cc1 [Z8885]', 0.09),
  ('CN(Cc1nnc2c(=O)[nH]ccn12)c1ccc2nccnc2n1 [ZINC001472868186]', 0.81),
  ('CC(CSc1nnc2[nH]cnn12)c1ccccc1 (stereo not drawn) [ZINC000920153280]', 0),
  ('Nc1nc(N)c2ncn(Cc3csc(C4CC4)n3)c2n1 [Z8585]', 1.3),
  ('CN(Cc1nnc2c(=O)[nH]ccn12)c1nccc(C(F)(F)F)n1 [Z7665]', 0.55),
  ('N#Cc1cccc(-n2ccc(C(=O)OCc3cccnc3)n2)c1 [Z6395]', 0.18),
  ('CC(C(=O)N1CCCC1c1nc(C(N)=O)no1)c1cccc(F)c1 (stereo not drawn) [Z4135]', 0.15),
  ('O=C1CCCN1CCSc1ncnc2[nH]cnc12 [Z9920]', 0.95),
  ('c1ccc2c(-c3noc(CCCc4nc(C5CC5)no4)n3)n[nH]c2c1 [Z9652]', 0.72),
  ('CS(=O)(=O)C1CCCN(c2ncnc3[nH]c(Cl)cc23)C1 (stereo not drawn) [Z9550]', 0.64),
  ('Cc1ccc(-c2noc(CCCSC3CCCNC3=O)n2)cc1F (stereo not drawn) [Z1121]', 0.57);

----------
# system: SARS-CoV-2 NSP3 Mac1 (Severe acute respiratory syndrome coronavirus 2, UniProt P0DTD1)
# Type: binding
# Design: contains a conserved macrodomain enzyme (Mac1)
# measurement-parameters: DSF dose responsiveness, 1 µM nsp3 mac1; adj p given
Recorded Spearman est (compound concentration vs apparent Tm) values for a group of compounds are listed next.
assay-readout: Spearman est (compound concentration vs apparent Tm)

INSERT INTO assay_data (compound, result) VALUES
  ('CNc1cc(N2CCCC(c3nc(C)no3)C2)ncn1 (stereo not drawn)', 0.24),
  ('O=C(Nc1ccc(C(=O)NCc2c(C(=O)O)sc3ccccc23)cc1)NC1CC1', 0.17),
  ('Cc1cc(S(=O)(=O)N2CCC[C@H](C(N)=O)C2)cnc1N', 0.3),
  ('Nc1ncnc(N2CCCC(CCC(=O)O)C2)c1Cl (stereo not drawn)', 0.65),
  ('Nc1ncnc2c1ncn2Cc1cccc(C(F)(F)F)c1', 0.5),
  ('CN(C(=O)CN1CCNC(=O)C1)c1ccc(-c2nccs2)cc1', '−0.73'),
  ('N#Cc1ccc(OCCn2cnc3c(N)ncnc32)cc1', 0.26),
  ('Clc1cc2c(N3CCCC(c4cccnc4)C3)ncnc2[nH]1 (stereo not drawn)', 0.2),
  ('COC(=O)C1Cc2c(O)cccc2C1NC(=O)c1ccc(NC(=O)NC2CC2)cc1 (stereo not drawn)', '−0.19'),
  ('O=C(O)[C@@H]1CCCN(C(=O)c2ccnc3[nH]ccc23)C1', 0.27),
  ('CNS(=O)(=O)c1cc(C(=O)N2CCc3nc(N)ncc3C2)co1', 0.3),
  ('c1ccc(-c2n[nH]c(Cc3noc([C@@H]4CCCO4)n3)n2)cc1', '−0.02');

----------
# system: SARS-CoV-2 NSP3 Mac1 (Severe acute respiratory syndrome coronavirus 2, UniProt P0DTD1)
# Type: binding
# measurement-parameters: PanDDA event map, 1 minus background density correction; crystal soaking of Mac1
We label by threshold. Values of 1-BDC strictly beneath 0.2 are Yes. Values of 0.2 and up are No.

INSERT INTO assay_data (compound, assigned_category) VALUES
  ('NC(=O)Nc1ccc(C(=O)NC2c3cccc(O)c3CC2C(=O)O)cc1 (stereo not shown) [Z8539_0041]', 'No'),
  ('CC(C)NC(=O)Nc1ccc(C(=O)NC2c3cccc(O)c3CC2C(=O)O)cc1 (stereo not shown) [Z8539_0046]', 'No'),
  ('CC1(C)CCC(C(=O)O)CN1C(=O)c1ncnc2[nH]ccc12 (stereo not shown) [FRESH00012962804]', 'No'),
  ('Cc1cc(S(=O)(=O)N2CCC[C@H](C(N)=O)C2)cnc1N [ZINC001364774273]', 'Yes'),
  ('Nc1ncnc2c1ncn2Cc1cccc(C(F)(F)F)c1 [ZINC000110510893]', 'No'),
  ('Nc1ncnc(N2CCC(Oc3ccncc3)C2)c1Cl (stereo not shown) [ZINC000302059710]', 'Yes'),
  ('O=C(CSc1nnn[nH]1)c1c[nH]c2ncc(Br)cc12 [R1104]', 'No'),
  ('Cc1noc(CC2CCCN(c3ncnc4[nH]c5cc(F)ccc5c34)C2)n1 (stereo not shown) [LL1_0005]', 'Yes'),
  ('O=C(NC1c2cccc(O)c2CC1C(=O)O)c1ccc2[nH]c(CO)nc2c1 (stereo not shown) [Z8539_0002]', 'No'),
  ('O=c1[nH]nc(C2CCCN(c3ncnc4[nH]ccc34)C2)o1 (stereo not shown) [Z7655]', 'Yes'),
  ('COC(=O)Nc1ccc(C(=O)NC2c3ccccc3CC2C(=O)O)cc1 (stereo not shown) [Z8531]', 'Yes'),
  ('O=C(Cc1ccc(-n2cccn2)cc1)OCC1CCCNC1=O (stereo not shown) [Compound Z5505]', 'Yes'),
  ('Cc1ccc([C@@H]2C[C@@H](C)CCN2C(=O)c2ncnc3[nH]ccc23)o1 [ZINC000611664196]', 'Yes'),
  ('O=C(NC1c2cccc(O)c2CC1C(=O)O)c1cnc2c(c1)CCCN2 (stereo not shown) [8539_0006]', 'Yes'),
  ('Nc1ncc(S(=O)(=O)N2CC(F)(F)C[C@H]2C(=O)O)cn1 [Compound Z1314]', 'Yes'),
  ('CC1(C(=O)O)CCN(C(=O)Cc2c[nH]c3nccc(Cl)c23)C1 (stereo not shown) [FRESH00014134848]', 'Yes'),
  ('CN(Cc1nnc2c(=O)[nH]ccn12)c1ccc2nccnc2n1 [ZINC001472868186]', 'Yes'),
  ('Nc1ncnc2c1ncn2Cc1ccc(Cl)cn1 [ZINC000559260078]', 'Yes'),
  ('O=S1(=O)CCC2(CCCN(c3ncnc4[nH]ccc34)C2)C1 (stereo not shown) [Z4305]', 'No'),
  ('Cc1nnc2n1CC(C(=O)O)N(C(=O)c1ccc(NC(=O)NC3CC3)cc1)C2 (stereo not shown) [8539_0037]', 'No'),
  ('O[C@@H]1CC[C@H](Nc2ncnc3[nH]ccc23)C1 [SRH-0018]', 'Yes'),
  ('O=C(Nc1ccc(C(=O)N2CC(C(=O)O)Cc3ccccc32)cc1)NC1CC1 (stereo not shown) [8539_0038]', 'Yes'),
  ('O=C(c1ncnc2[nH]ccc12)N1CC=CC12CCCCC2 [ZINC000827900828]', 'Yes'),
  ('O=C(O)C[C@@H]1CCCN(c2ncnc3nc[nH]c23)C1 [REAL250002852032]', 'Yes'),
  ('N#Cc1ccc(OCCn2cnc3c(N)ncnc32)cc1 [ZINC000043461211]', 'No'),
  ('O=C(NC1c2cccc(O)c2CC1C(=O)O)c1ccc(NCC2CC2)nc1 (stereo not shown) [8539_0009]', 'No'),
  ('O=C1CCCN1CCSc1ncnc2[nH]cnc12 [Compound Z9920]', 'No'),
  ('CN(CC(=O)O)C(=O)c1ccc2n[nH]c(=O)n2c1 [REAL250003774401]', 'Yes'),
  ('Cc1oc(=O)oc1CSc1ncnc2[nH]cnc12 [Compound Z7450]', 'No'),
  ('O=C(c1cn[nH]c(=O)c1)N1CCC(CF)(C(=O)O)C1 (stereo not shown) [REAL250001448407]', 'Yes'),
  ('Cn1nc(O)c2c1CN(C(=O)c1cc(O)cc(=O)o1)CC2 [FRESH00002410346]', 'Yes'),
  ('O=C(NC1c2cccc(O)c2CC1C(=O)O)c1cnc(NC2CCOCC2)cn1 (stereo not shown) [8539_0007]', 'Yes'),
  ('Nc1nc(N)c2ncn(Cc3csc(C4CC4)n3)c2n1 [Compound Z8585]', 'Yes'),
  ('O=C(Nc1ccc(C(=O)NCc2c(C(=O)O)sc3ccccc23)cc1)NC1CC1 [Z8539_0025]', 'No');

Origin of the recorded values: paper PMC9926234
